All values here come from PubChem BioAssay AID1345083.

Experimental details: Cytotoxic Profiling in HEK 293 Cell Line of Diverse Libraries Using Quantitative High-Throughput Screening; further: nearly all actives have a fitted effect of over 60% in size
Details: HEK 293 viability, ATP luminescence (CellTiter-Glo), 48-72 h; series mostly up to 115 µM
The whole screen tested about 94,000 compounds, of which about 6,200 (6.6%) were called active. Inconclusive results (about 31%) are left out. The call rests on the fitted dose curve; in most records, active means well fitted inhibition curve with a large enough effect; inconclusive means small, poorly fitted or top-dose-only effect; inactive means flat fitted curve, though single readings scatter. The sample holds actives, similar compounds and a random draw of the others, so the mix is not that of the screen.
Outcomes: active, inactive

> print(dat)
                                   compound  discrete.label
1  O=C(NC[C@H]1C[C@@H]2CCN1C[C@@H]2CN1CCC(Cc2ccccc2)CC1)c1ccco1        inactive
2  CN(CCc1ccccn1)C[C@H]1CN2CC[C@H]1C[C@@H]2CNC(=O)c1ccccc1        inactive
3  CN(Cc1ccccc1)C[C@H]1CN2CC[C@H]1C[C@@H]2CNC(=O)Nc1cccc(C#N)c1          active
4  Cc1ccc(S(=O)(=O)NC[C@H]2C[C@@H]3CCN2C[C@@H]3CN2CCN(c3ncccn3)CC2)cc1        inactive
5  COc1cccc(C(=O)N2CCC3(CC2)NCc2ccccc2-n2ccnc23)c1        inactive
6  Cc1ccc([C@@H]2CN(C(=O)c3ccco3)[C@@H]3C4CCN(CC4)[C@@H]32)cc1        inactive
7  CC[C@H]1CN2CC[C@H]1C[C@@H]2CNCc1cccc(C#N)c1        inactive
8  CCCCc1cn(C[C@H]2CC3CCN2C[C@@H]3C(=O)NCc2ccccc2)nn1 (some centres undefined)        inactive
9  COc1cc2c(cc1Oc1cccc(N(C)C)c1)NC(=O)C21CCN(Cc2ccccn2)CC1          active
